Values from ChEMBL document CHEMBL1806439

target: Histamine H1 receptor (Cavia porcellus) (UniProt P31389); assay: Inhibition of histamine H1 receptor in guinea pig ileum assessed as inhibition of histamine-induced muscle spasms at 2 x 10 '-3 mg/ml after 5 mins (reference value: 0.31 %); assay type: tissue-based
Sequence (P31389 whole entry): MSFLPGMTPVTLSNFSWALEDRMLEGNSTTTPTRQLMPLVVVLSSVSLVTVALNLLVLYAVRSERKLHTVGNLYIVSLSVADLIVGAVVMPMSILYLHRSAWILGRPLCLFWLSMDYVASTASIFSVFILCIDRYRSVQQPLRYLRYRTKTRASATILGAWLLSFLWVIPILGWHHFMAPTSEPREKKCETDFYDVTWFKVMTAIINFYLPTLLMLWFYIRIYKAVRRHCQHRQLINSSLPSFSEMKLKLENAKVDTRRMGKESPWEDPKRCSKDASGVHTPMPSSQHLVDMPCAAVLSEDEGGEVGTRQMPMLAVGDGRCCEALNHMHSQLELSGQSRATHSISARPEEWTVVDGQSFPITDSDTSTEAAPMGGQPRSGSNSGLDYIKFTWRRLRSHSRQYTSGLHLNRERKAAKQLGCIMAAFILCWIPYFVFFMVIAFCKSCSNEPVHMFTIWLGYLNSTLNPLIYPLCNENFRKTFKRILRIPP
RECORDED_ENDPOINT: inhibition (%)

• CC[C@H](CO)N1CCC(=C2c3ccc(Cl)cc3CCc3cccnc32)CC1 = 29.4
• CN(C)CCC(c1ccc(Cl)cc1)c1ccccn1 (centres undefined) = 41.3

(1) OCCCN1CCC(=C2c3ccc(Cl)cc3CCc3cccnc32)CC1
(2) C[C@H](c1ccccc1)N1CCC(=C2c3ccc(Cl)cc3CCc3cccnc32)CC1
Query string: Looking only at measured inhibition, which entry is lower, 1 or 2 ? Response format: the label of the selected entry.
Result string: 2
